# Assay method text: Inhibitory activity against epithelial sodium channels- NA+/H+ antiporter, Na+/ca+2 exchanger, Na+/ca+2 channels, K+ channel, nicotinic acetylcholine receptor and Na+/K+ ATPase (microscopic dissociation constant)
# Type: ADME
# Reported conditions: rana ridibundus
Readout: Koff (s⁻¹)

[1] Nc1nc(N)c(C(=O)NC(N)N)nc1F
[2] Nc1nc(Cl)c(Cl)nc1C(=O)NC(N)N
Which is greater in Koff, the first item 1 or the second item 2 ? Kindly state the label of the option you pick.
2

[I] Nc1nc(N)c(C(=O)NC(N)N)nc1I
[II] Nc1ncc(Cl)nc1C(=O)NC(N)N
[III] Nc1nc(N)c(C(=O)NC(N)N)nc1Cl
Order the records by Koff, with each subsequent value no larger than the one before. Would you mind listing the labels in the order asked for?
I, II, III

* * *

# Assay method text: Inhibitory activity against epithelial sodium channels- NA+/H+ antiporter, Na+/ca+2 exchanger, Na+/ca+2 channels, K+ channel, nicotinic acetylcholine receptor and Na+/K+ ATPase
# Reported conditions: rana ridibundus
Readout: Kon (M⁻¹ s⁻¹)

INSERT INTO assay_data (chemical_structure, readout, observed_value) VALUES
  ('Nc1nc(N)c(C(=O)NC(N)N)nc1F', 'Kon', '1.354e+07');

[a] Nc1nc(Cl)c(Cl)nc1C(=O)NC(N)N
[b] Nc1nc(N)c(C(=O)NC(N)N)nc1I
Which is greater in Kon, the first item a or the second item b ? Kindly state the label of the option you pick.
b

[1] Nc1ncc(Cl)nc1C(=O)NC(N)N
[2] Nc1nc(N)c(C(=O)NC(N)N)nc1Cl
Which is greater in Kon, the first item 1 or the second item 2 ? Kindly state the label of the option you pick.
2
(2: 1.317e+07 M⁻¹ s⁻¹, 1: 3.32e+06 M⁻¹ s⁻¹)

* * *

# Assay method text: Blocking time for inhibition of epithelial sodium channels- NA+/H+ antiporter, Na+/ca+2 exchanger, Na+/ca+2 channels, K+ channel, nicotinic acetylcholine receptor and Na+/K+ ATPase
# Reported conditions: rana ridibundus
Readout: Block time (ms)

Examples with their reported Block time follow.
INSERT INTO results (chemical_structure, readout, endpoint_unit, observed_value) VALUES
  ('Nc1ncc(Cl)nc1C(=O)NC(N)N', 'Block time', 'ms', 92),
  ('Nc1nc(Cl)c(Cl)nc1C(=O)NC(N)N', 'Block time', 'ms', 7);

[I] Nc1nc(N)c(C(=O)NC(N)N)nc1Br
[II] Nc1nc(N)c(C(=O)NC(N)N)nc1F
[III] Nc1nc(N)c(C(=O)NC(N)N)nc1I
Give the ascending ranking of the items by reported Block time. Would you mind listing the labels in the order asked for?
II, III, I

[P] Nc1nc(N)c(C(=O)NC(N)N)nc1Cl
[Q] Nc1cnc(C(=O)NC(N)N)c(N)n1
Which is greater in Block time, the first item P or the second item Q ? Kindly state the label of the option you pick.
P
(P: 255 ms, Q: 6 ms)
